# experimental-system: IMP-1 (Serratia marcescens, UniProt P52699)
# Sequence (P52699 whole entry, looked up, species assumed): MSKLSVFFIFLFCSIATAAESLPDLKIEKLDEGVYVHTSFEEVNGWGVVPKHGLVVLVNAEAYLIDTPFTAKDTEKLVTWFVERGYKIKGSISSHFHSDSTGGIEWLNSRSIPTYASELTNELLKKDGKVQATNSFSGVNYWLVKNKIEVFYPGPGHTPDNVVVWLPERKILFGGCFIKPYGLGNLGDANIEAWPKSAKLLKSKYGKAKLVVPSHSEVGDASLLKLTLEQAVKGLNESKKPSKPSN
# protocol-notes: biochemical
# Type: biochemical
# test-conditions: fluorescence assay, CCF2-FA substrate, 2 pM enzyme, 2 hours at 25° C.; read-out: IMP-1 IC50
pIC50: −log10 of the molar value.
pIC50 below 9 gives N; pIC50 at or above it gives Y.

These recorded examples may help you get a feel for the data.
>>> discrete_label("NCCNS(=O)(=O)c1ccc(-c2ccc3nccn3c2)c(-c2nn[nH]n2)c1S(N)(=O)=O")
"Y"
>>> discrete_label("NCc1nc2c(-c3ccc(S(=O)(=O)N[C@H](CN)CO)c(S(N)(=O)=O)c3-c3nn[nH]n3)cccc2s1")
"N"
>>> discrete_label("NCCNS(=O)(=O)c1ccc(-c2ccc3sc(CN)nc3c2)c(-c2nn[nH]n2)c1S(N)(=O)=O")
"Y"
>>> discrete_label("CC[C@H](CN)NS(=O)(=O)c1ccc(-c2cccc3[nH]c(N)nc23)c(-c2nn[nH]n2)c1S(N)(=O)=O")
"Y"
>>> discrete_label("Nc1nc2c(-c3ccc(S(=O)(=O)NCCC(N)C(F)F)c(S(N)(=O)=O)c3-c3nnn[nH]3)cccc2s1.O=CO (centres unmarked) [Example 124, formate]")
"Y"

I'd appreciate it if you could say whether CN(CCc1ccncc1)S(=O)(=O)c1ccc(-c2cccc3sc(N)nc23)c(-c2nnn[nH]2)c1S(N)(=O)=O.O=C(O)C(F)(F)F [Example 100, 2,2,2-trifluoroacetate] has pIC50 at least equal to 9.
N

I'd appreciate it if you could say whether NCc1nc2c(-c3ccc(S(=O)(=O)NC[C@H](O)CN)c(S(N)(=O)=O)c3-c3nn[nH]n3)cccc2[nH]1 has pIC50 at least equal to 9.
N
